Taken from ChEMBL document CHEMBL1201861.

The following compounds are shown together with reported IC50 values.
System: SK-OV-3;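 note: growth inhibition of SK-OV-3 human cells, read out with a cell viability assay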
Assay: cells
Format: functional, cell-based, Homo sapiens
Details: Homo sapiens, SK-OV-3
Description: SANGER: Inhibition of human SK-OV-3 cell growth in a cell viability assay.
Return type: number; implicit unit µM.

For orientation, consider the following solved cases.
C=CCNC1=C2C[C@@H](C)C[C@H](OC)[C@H](O)[C@@H](C)/C=C(\C)[C@H](OC(N)=O)[C@@H](OC)/C=C\C=C(/C)C(=O)NC(=CC1=O)C2=O :: 0.176
COC(=O)CNC(=O)C(=O)OC :: 798
CCC1=C[C@@H]2CN(C1)Cc1c([nH]c3ccccc13)[C@@](C(=O)OC)(c1cc3c(cc1OC)N(C)[C@H]1[C@@](O)(C(=O)OC)[C@H](OC(C)=O)[C@]4(CC)C=CCN5CC[C@]31[C@@H]54)C2 :: 0.00839
Cn1cc(C2=C(c3ccc(Cl)cc3Cl)C(=O)NC2=O)c2ccccc21 :: 9.1

Input `C=CCc1cccc(/C=N/NC(=O)CN2CCN(Cc3ccccc3)CC2)c1O` . Output IC50: 1.66
